- protocol.summary: Antiproliferative activity against human MCF7/beta cells after 72 hrs by MTT assay
- Type: functional, cell-based
- experimental.parameters: MCF7, 72 h
The compounds listed here are annotated with their pIC50.
On this scale, pIC50 is minus log10 of a concentration expressed in M (mol/L).

Field: example entries. Status: answers known.
[
  {
    "smiles.string": "Cl.c1ccc(-c2cccc(Nc3ncnc4cc5c(cc34)OCCO5)c2)cc1",
    "pIC50": 6.13
  },
  {
    "smiles.string": "Cl.c1ccc(-c2cccc(Nc3ncnc4cc5c(cc34)OCCCO5)c2)cc1",
    "pIC50": 6.15
  }
]

Task: Which pIC50 value belongs to COc1cc2ncnc(Nc3cccc(Br)c3)c2cc1OC ?
Result: 5.09
